- test.method.notes: Cytotoxicity against human HOS cells
- Assay type: cell-based
// classify: if (CC50 < 7 µM) yes else no

Is it true that CC50 reported for CN(C)[C@@H]1CCN(c2cccc3nc(CN(C)[C@H]4CCCc5cccnc54)cn23)C1 is less than 7 µM? yes

What about CCCCN(Cc1cn2c(N3CCN(C)CC3)cccc2n1)[C@H]1CCCc2cccnc21 ? yes

What about CN(Cc1cn2c(N3CCC(N)CC3)cccc2n1)[C@H]1CCCc2cccnc21 ? yes

What about CCN(Cc1cn2c(N3CCN(C)CC3)cccc2n1)[C@H]1CCCc2cccnc21 ? no

What about CN(Cc1cn2c(N3CCN4CCCC4C3)cccc2n1)[C@H]1CCCc2cccnc21 (stereo partly drawn) ? yes

What about CN1CCC(N(C)c2cccc3nc(CN(C)[C@H]4CCCc5cccnc54)cn23)CC1 ? no

What about CN1CCN(c2cccc3nc(CN(C)[C@H]4CCCc5cccnc54)cn23)CC1 ? yes

What about CN(C)[C@H]1CCN(c2cccc3nc(CN(C)[C@H]4CCCc5cccnc54)cn23)C1 ? yes

What about CN1CCN(c2cccc3nc(CN(CC4CC4)[C@H]4CCCc5cccnc54)cn23)CC1 ? no

What about CN(C)C1CCN(c2cccc3nc(CN(C)[C@H]4CCCc5cccnc54)cn23)CC1 ? yes

* * *

- test.method.notes: Clearance in Beagle dog at 1 mg/kg, iv
- Assay type: ADME, organism-based, Canis lupus familiaris
- Design: dose 1 mg/kg, route intravenous
- experimental.setup: in vivo
outcome.measure: clearance
# number then unit; no other words

Given the molecule CN1CCN(c2cccc3nc(CN(C)[C@H]4CCCc5cccnc54)cn23)CC1 , what is its reported clearance? 18 mL/min/kg

* * *

- test.method.notes: Clearance in rat at 1 mg/kg, iv
- Assay type: ADME, organism-based
- Design: dose 1 mg/kg, route intravenous
- experimental.setup: in vivo
Quick rule: clearance of at least 10 mL/min/kg means Fulfilled, below that means Not fulfilled.

Assess whether reported clearance for CCCN(Cc1cn2c(N3CCN(C)CC3)cccc2n1)[C@H]1CCCc2cccnc21 sits at 10 mL/min/kg or higher. Not fulfilled

What about CC(C)N1CCN(c2cccc3nc(CN(C)[C@H]4CCCc5cccnc54)cn23)CC1 ? Fulfilled

What about CN(C)[C@H]1CCN(c2cccc3nc(CN(C)[C@H]4CCCc5cccnc54)cn23)C1 ? Not fulfilled

What about CN(C)C1CCN(c2cccc3nc(CN(C)[C@H]4CCCc5cccnc54)cn23)CC1 ? Not fulfilled

What about CN1CCN(c2cccc3nc(CN(C)[C@H]4CCCc5cccnc54)cn23)CC1 ? Fulfilled

* * *

- test.method.notes: Half life in cynomolgus monkey at 1 mg/kg, iv
- Type: ADME, organism-based, Macaca fascicularis
- Parameters: dose 1 mg/kg, route intravenous
- experimental.setup: in vivo
outcome.measure: half-life (h)
Provide the reading as a plain figure in h.

Given the compound CN1CCN(c2cccc3nc(CN(C)[C@H]4CCCc5cccnc54)cn23)CC1 , what is its reported half-life? 10

* * *

- test.method.notes: Cytotoxicity against human HOS cells
- Assay type: cell-based
// classify: if (CC50 < 10 µM) 1 else 0

Is it true that CC50 reported for CCCN(Cc1cn2c(N3CCN(C)CC3)cccc2n1)[C@H]1CCCc2cccnc21 is less than 10 µM? 1

What about CN1CCN(c2cccc3nc(CN(C)[C@@H]4CCCc5cccnc54)cn23)CC1 ? 0

What about CC(C)N(Cc1cn2c(N3CCN(C)CC3)cccc2n1)[C@H]1CCCc2cccnc21 ? 1

What about CC(C)CN(Cc1cn2c(N3CCN(C)CC3)cccc2n1)[C@H]1CCCc2cccnc21 ? 0

What about CCN1CCN(c2cccc3nc(CN(C)[C@H]4CCCc5cccnc54)cn23)CC1 ? 1

What about CN1CCN(c2cccc3nc(CN(Cc4ccccc4)[C@H]4CCCc5cccnc54)cn23)CC1 ? 1

What about CN(Cc1cn2c(N3CCOCC3)cccc2n1)C1CCCc2cccnc21 (racemic) ? 0

What about CN1CCC(N(C)c2cccc3nc(CN(C)[C@H]4CCCc5cccnc54)cn23)C1 (some centres undefined) ? 0

* * *

- test.method.notes: Volume of distribution at steady state in cynomolgus monkey at 1 mg/kg, iv
- Type: ADME, organism-based, Macaca fascicularis
- Parameters: dose 1 mg/kg, route intravenous
- experimental.setup: in vivo, read-out: Vdss
outcome.measure: Vd
# number then unit; no other words

Given the compound CN1CCN(c2cccc3nc(CN(C)[C@H]4CCCc5cccnc54)cn23)CC1 , what is its reported Vd? 3.7 L/kg

* * *

- test.method.notes: Oral bioavailability in Beagle dog at 3 mg/kg
- Assay type: ADME, organism-based, Canis lupus familiaris
- experimental.setup: in vivo
outcome.measure: bioavailability (%)
Provide the reading as a plain figure in %.

Given the compound CN1CCN(c2cccc3nc(CN(C)[C@H]4CCCc5cccnc54)cn23)CC1 , what is its reported bioavailability? 13

* * *

- test.method.notes: Clearance in cynomolgus monkey at 1 mg/kg, iv
- Format: ADME, organism-based, Macaca fascicularis
- Set-up: dose 1 mg/kg, route intravenous
- experimental.setup: in vivo
outcome.measure: clearance (mL/min/kg)
Provide the reading as a plain figure in mL/min/kg.

Given the compound CN1CCN(c2cccc3nc(CN(C)[C@H]4CCCc5cccnc54)cn23)CC1 , what is its reported clearance? 6

* * *

- test.method.notes: Half life in rat at 1 mg/kg, iv
- Assay type: ADME, organism-based
- Set-up: dose 1 mg/kg, route intravenous
- experimental.setup: in vivo
outcome.measure: half-life (h)
Provide the reading as a plain figure in h.

Given the compound CN(C)[C@H]1CCN(c2cccc3nc(CN(C)[C@H]4CCCc5cccnc54)cn23)C1 , what is its reported half-life? 7.9

What about CCCN(Cc1cn2c(N3CCN(C)CC3)cccc2n1)[C@H]1CCCc2cccnc21 ? 10.7

What about CN1CCN(c2cccc3nc(CN(C)[C@H]4CCCc5cccnc54)cn23)CC1 ? 5.5

What about CN(C)C1CCN(c2cccc3nc(CN(C)[C@H]4CCCc5cccnc54)cn23)CC1 ? 10

What about CN1CCN(c2cccc3nc(CN(CC4CC4)[C@H]4CCCc5cccnc54)cn23)CC1 ? 8.8

What about CC(C)N1CCN(c2cccc3nc(CN(C)[C@H]4CCCc5cccnc54)cn23)CC1 ? 3.9

* * *

- test.method.notes: Volume of distribution at steady state in Beagle dog at 1 mg/kg, iv
- Format: ADME, organism-based, Canis lupus familiaris
- Parameters: dose 1 mg/kg, route intravenous
- experimental.setup: in vivo, read-out: Vdss
outcome.measure: Vd (L/kg)
Provide the reading as a plain figure in L/kg.

Given the compound CN1CCN(c2cccc3nc(CN(C)[C@H]4CCCc5cccnc54)cn23)CC1 , what is its reported Vd? 8.5

* * *

- test.method.notes: Oral bioavailability in rat at 3 mg/kg
- Type: ADME, organism-based
- experimental.setup: in vivo
outcome.measure: bioavailability (%)
Provide the reading as a plain figure in %.

Given the compound CN(C)C1CCN(c2cccc3nc(CN(C)[C@H]4CCCc5cccnc54)cn23)CC1 , what is its reported bioavailability? 7

What about CN(C)[C@H]1CCN(c2cccc3nc(CN(C)[C@H]4CCCc5cccnc54)cn23)C1 ? 2

What about CCCN(Cc1cn2c(N3CCN(C)CC3)cccc2n1)[C@H]1CCCc2cccnc21 ? 41

What about CN1CCN(c2cccc3nc(CN(CC4CC4)[C@H]4CCCc5cccnc54)cn23)CC1 ? 31

What about CC(C)N1CCN(c2cccc3nc(CN(C)[C@H]4CCCc5cccnc54)cn23)CC1 ? 29

What about CN1CCN(c2cccc3nc(CN(C)[C@H]4CCCc5cccnc54)cn23)CC1 ? 11

* * *

- test.method.notes: Volume of distribution at steady state in rat at 1 mg/kg, iv
- Assay type: ADME, organism-based
- Design: dose 1 mg/kg, route intravenous
- experimental.setup: in vivo, read-out: Vdss
outcome.measure: Vd (L/kg)
Provide the reading as a plain figure in L/kg.

Given the compound CCCN(Cc1cn2c(N3CCN(C)CC3)cccc2n1)[C@H]1CCCc2cccnc21 , what is its reported Vd? 6.2

What about CN(C)C1CCN(c2cccc3nc(CN(C)[C@H]4CCCc5cccnc54)cn23)CC1 ? 5.1

What about CN1CCN(c2cccc3nc(CN(CC4CC4)[C@H]4CCCc5cccnc54)cn23)CC1 ? 6

What about CN(C)[C@H]1CCN(c2cccc3nc(CN(C)[C@H]4CCCc5cccnc54)cn23)C1 ? 4.5

What about CC(C)N1CCN(c2cccc3nc(CN(C)[C@H]4CCCc5cccnc54)cn23)CC1 ? 10.6

What about CN1CCN(c2cccc3nc(CN(C)[C@H]4CCCc5cccnc54)cn23)CC1 ? 4.9

* * *

- target.of.assay: UniProt P61073
- Sequence (P61073 whole entry): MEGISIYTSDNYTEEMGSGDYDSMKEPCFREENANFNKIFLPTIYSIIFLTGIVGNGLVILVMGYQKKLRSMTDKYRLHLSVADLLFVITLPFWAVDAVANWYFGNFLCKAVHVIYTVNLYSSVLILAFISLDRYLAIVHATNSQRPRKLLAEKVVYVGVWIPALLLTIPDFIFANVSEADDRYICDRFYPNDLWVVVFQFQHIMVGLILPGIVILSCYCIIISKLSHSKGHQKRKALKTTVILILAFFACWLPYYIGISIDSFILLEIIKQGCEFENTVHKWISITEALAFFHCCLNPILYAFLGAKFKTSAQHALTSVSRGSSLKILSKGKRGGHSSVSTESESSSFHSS
- test.method.notes: Antagonist activity at CXCR4
- Type: functional
Calls of active or inactive are those of the source. The rule behind the calls is not given here.
outcome.measure: Activity

Sample answers from the record:
CC(C)N(Cc1cn2c(N3CCN(C)CC3)cccc2n1)[C@H]1CCCc2cccnc21    Active
CN(Cc1cn2c(N3CCC(N)CC3)cccc2n1)[C@H]1CCCc2cccnc21    Active
CCN(Cc1cn2c(N3CCN(C)CC3)cccc2n1)[C@H]1CCCc2cccnc21    Active
CC(C)N1CCN(c2cccc3nc(CN(C)[C@H]4CCCc5cccnc54)cn23)CC1    Active
CCCN(Cc1cn2c(N3CCN(C)CC3)cccc2n1)[C@H]1CCCc2cccnc21    Active
CN1CCN(c2cccc3nc(CN(C)[C@H]4CCCc5cccnc54)cn23)CC1    Active
CCCCN(Cc1cn2c(N3CCN(C)CC3)cccc2n1)[C@H]1CCCc2cccnc21    Active
CN(Cc1cn2c(N3CCN4CCCC4C3)cccc2n1)[C@H]1CCCc2cccnc21 (some centres not stated)    Active
CN(C)[C@H]1CCN(c2cccc3nc(CN(C)[C@H]4CCCc5cccnc54)cn23)C1    Active
CC(C)CN(Cc1cn2c(N3CCN(C)CC3)cccc2n1)[C@H]1CCCc2cccnc21    Active

Entry CN1CCN(c2cccc3nc(CN(Cc4ccccc4)[C@H]4CCCc5cccnc54)cn23)CC1 , system UniProt P61073: what Activity was measured? Active

What about CN1CCN(c2cccn3cc(CN(C)[C@H]4CCCc5cccnc54)nc23)CC1 ? Active

What about CN(Cc1cn2c(N3CCOCC3)cccc2n1)C1CCCc2cccnc21 (racemic) ? Active

What about CN1CCN(c2cccc3nc(CN(C)[C@@H]4CCCc5cccnc54)cn23)CC1 ? Active

Values were extracted from ChEMBL document CHEMBL1156094.
